The following compounds were reported with pIC50 values on Tyrosine-protein phosphatase non-receptor type 1 (Homo sapiens) in different studies.
Sequence (P18031 whole entry): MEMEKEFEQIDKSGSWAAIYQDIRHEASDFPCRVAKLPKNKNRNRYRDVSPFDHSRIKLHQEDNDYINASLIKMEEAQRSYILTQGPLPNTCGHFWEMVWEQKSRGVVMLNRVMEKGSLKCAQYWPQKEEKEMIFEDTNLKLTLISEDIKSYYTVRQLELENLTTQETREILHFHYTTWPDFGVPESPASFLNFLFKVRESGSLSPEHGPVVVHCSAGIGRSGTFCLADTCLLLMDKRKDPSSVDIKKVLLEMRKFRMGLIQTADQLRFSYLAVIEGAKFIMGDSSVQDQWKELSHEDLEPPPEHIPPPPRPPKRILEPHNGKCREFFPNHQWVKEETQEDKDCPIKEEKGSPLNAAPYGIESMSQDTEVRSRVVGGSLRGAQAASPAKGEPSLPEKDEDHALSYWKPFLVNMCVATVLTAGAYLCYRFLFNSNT
pIC50: −log10 of the molar value.
The label depends only on pIC50: criterion met if it is at least 5, criterion not met if it is smaller.

Check out these entries, answers already filled in.
CCCCCc1c(Oc2cc(OC)cc3c2C(=O)OC3(CCCC)OC)c(O)cc(O)c1C(=O)O (configuration not stated) ... criterion met
COc1cc(Cc2cc(OC)c(O)c(C(=O)O)c2)cc(C(=O)O)c1O ... criterion not met
O=C(O)COc1ccc(S(=O)(=O)N(Cc2ccc(-c3csnn3)cc2)Cc2ccc3cc(Br)c(C(F)(F)P(=O)(O)O)cc3n2)cc1 ... criterion met
CCOC(=O)C(CCCOc1cccc(OCCN(C)C)c1C(=O)CC)C(=O)OCC ... criterion not met
CCOCC1(CN2CCN(c3ccccn3)CC2)COc2ccc3c(C)cc(=O)oc3c2C1=O (configuration not stated) ... criterion not met

Shift focus to the following entry.
Exam item: decide whether the reported pIC50 for CNC(=O)[C@@H]1Cc2ccc(NS(=O)(=O)O)cc2CN1C(=O)CCc1ccccc1 is at least 5. criterion not met
